# credit: PubChem BioAssay (NCI)

ASSAY_PROCEDURE: NCI Yeast Anticancer Drug Screen. Data for the bub3 strain (AID 167)
CONDITIONS_USED: S. cerevisiae bub3 mutant strain, at 50.0 µM, stronger effect = higher value
The panel holds about 79,000 compounds, 15% with a hit somewhere; the sample as a whole holds those more often.
MEASUREMENT_LABEL: growth inhibition (%)

INSERT INTO results (compound, unit_tag, result_value) VALUES
  ('C=C1C(=O)OC(CCCCCCCCCCCCCC(C)=O)[C@H]1C(=O)O (stereo partly specified)', '%', -10.9),
  ('ClC1=C(Cl)C2(Cl)C=CC1(Cl)C2', '%', 1.9),
  ('C=CCSC(C)=O', '%', -7.8),
  ('CC(=O)CCC(=O)c1ccoc1', '%', -9.55),
  ('CC(=O)Nc1cccc(Cc2cccc(NC(C)=O)c2)c1', '%', -5.1),
  ('Nc1[nH]c(=O)nc2nc(I)[nH]c12', '%', 22.9),
  ('NC(=O)C12C3C4C1C1C2C3C41C(N)=O (stereo unspecified)', '%', -5.8),
  ('CN(C)CCn1c(CO)nc2c1c(=O)n(C)c(=O)n2C', '%', 0.1),
  ('CC1=CC(=O)C(c2ccccc2)CC1 (stereo unspecified)', '%', -0.75),
  ('Cc1nc([N+](=O)[O-])cn1/C=C/Cn1cc([N+](=O)[O-])nc1C', '%', -25.7),
  ('CSc1nc(N)c(NS(=O)(=O)c2ccc([N+](=O)[O-])cc2)c(=O)[nH]1', '%', 10.1),
  ('CN(C)CC1CC(O)C(CN(C)C)CC1O (stereo unspecified)', '%', -6.25),
  ('CC(=O)OC1CCC2(C)C(=CCC3C2CCC2(C)C(/C(C)=N/NC(N)=S)=CCC32)C1 (stereo unspecified)', '%', 37.7),
  ('CCOC(=O)c1cc(NC(C)=O)cn1C', '%', 6.45),
  ('O=C1CCC(=O)N1C(c1ccccc1)(c1ccccc1)N1C(=O)CCC1=O', '%', 8.25),
  ('COc1ccc(C[C@@H]2Cc3cc(OC)c(OC)cc3CN2C)cc1', '%', 10.9),
  ('CCOC(=O)/C=C/CI', '%', 13.5),
  ('Oc1ccc(O)c(CCCc2cc(O)ccc2O)c1', '%', 6.95),
  ('Cc1c(C)n2c(=O)n(-c3ccccc3)c(=O)n2c1=O', '%', -7.75),
  ('C=CCN=C1NC(=O)C(CC(=O)Nc2cccc(Cl)c2)S1 (stereo unspecified)', '%', -36.5),
  ('CCOP(=O)(OCC)C(C(=O)OC)C(=O)C(=O)Nc1cccc([N+](=O)[O-])c1 (stereo unspecified)', '%', 0.35),
  ('CCOC(C)OCCCI (stereo unspecified)', '%', -13.3),
  ('O=NN(C(=O)NCCCl)c1[nH]c(=O)ncc1Br', '%', -7.95),
  ('C#Cc1cccc(N=Cc2cc(Cl)cc(C)c2O)c1', '%', 37.7),
  ('COc1cc(C=C2N=C(c3ccccc3)N(n3c(-c4ccccc4)nc4ccccc4c3=O)C2=O)cc(OC)c1OC', '%', 0.65),
  ('OCC1OC(n2cc(I)c3c(Cl)ncnc32)C(O)C1O (stereo unspecified)', '%', 1.6);
